ASSAY SYSTEM: hGalR2 (Homo sapiens, UniProt O43603)
Construct: host or cells: HEK293
Sequence (O43603 whole entry): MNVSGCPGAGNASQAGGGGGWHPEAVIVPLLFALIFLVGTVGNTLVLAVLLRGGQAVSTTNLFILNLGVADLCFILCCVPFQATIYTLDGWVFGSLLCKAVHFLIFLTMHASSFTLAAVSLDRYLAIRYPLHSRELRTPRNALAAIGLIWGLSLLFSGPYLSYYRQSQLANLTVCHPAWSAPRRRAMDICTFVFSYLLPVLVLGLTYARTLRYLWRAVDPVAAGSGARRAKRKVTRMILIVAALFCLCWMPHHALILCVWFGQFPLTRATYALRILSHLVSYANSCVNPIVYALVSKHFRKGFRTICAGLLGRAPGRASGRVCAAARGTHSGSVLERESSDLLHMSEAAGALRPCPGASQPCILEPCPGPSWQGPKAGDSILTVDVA
ASSAY SUMMARY: SRE-Luc receptor activation assay, hGalR2
Assay type: cell-based
EXPERIMENTAL CONDITIONS: Relative to hSPX Emax
Positions of bridges follow the written chain, without caps; N, C: chain ends. Residues, ends and D or L forms follow the SMILES beside them.
Response key: label 1 means hGalR2 Emax >= 1; label 0 means hGalR2 Emax < 1.

State whether the measured hGalR2 Emax reaches 1, counting equality as reaching it, for CSCC[C@@H]1NC(=O)[C@H](C)NC(=O)[C@H](CCC(N)=O)NC(=O)[C@@H](NC(=O)[C@@H](NC(=O)[C@H](Cc2c[nH]c3ccccc23)NC(=O)[C@@H](N)CC(N)=O)[C@@H](C)O)CSSC[C@@H](C(=O)N[C@@H](CCC(N)=O)C(N)=O)NC(=O)CNC(=O)[C@H](CCCCN)NC(=O)[C@H](CC(C)C)NC(=O)[C@H](Cc2ccc(O)cc2)NC(=O)[C@H](CC(C)C)NC1=O [LH102] (H-NWTCQAMLYLKGCQ-NH2; disulfide 4-13; N-terminus assumed)
label 1

State whether the measured hGalR2 Emax reaches 1, counting equality as reaching it, for CC(=O)N[C@H]1CSSC[C@@H](C(=O)N[C@@H](Cc2c[nH]cn2)C(=O)N[C@@H](C)C(=O)N[C@H](C(N)=O)C(C)C)NC(=O)CNC(=O)[C@H](CC(C)C)NC(=O)[C@H](CC(C)C)NC(=O)[C@H](Cc2ccc(O)cc2)NC(=O)CNC(=O)[C@H](C)NC(=O)[C@H](CO)NC(=O)[C@H](CC(N)=O)NC(=O)[C@H](CC(C)C)NC(=O)[C@H]([C@@H](C)O)NC(=O)[C@H](Cc2c[nH]c3ccccc23)NC1=O [LH201 (Ac)] (Ac-CWTLNSAGYLLGCHAV-NH2; disulfide 1-13)
label 1

State whether the measured hGalR2 Emax reaches 1, counting equality as reaching it, for CSCC[C@@H]1NC(=O)[C@H](C)NC(=O)[C@H](CCC(N)=O)NC(=O)[C@@H]2CCCN2C(=O)[C@H]([C@@H](C)O)NC(=O)[C@H](Cc2c[nH]c3ccccc23)NC(=O)[C@@H](N)CSSC[C@@H](C(=O)N[C@@H](CCC(N)=O)C(N)=O)NC(=O)CNC(=O)[C@H](CCCCN)NC(=O)[C@H](CC(C)C)NC(=O)[C@H](Cc2ccc(O)cc2)NC(=O)[C@H](CC(C)C)NC1=O [LH101] (H-CWTPQAMLYLKGCQ-NH2; disulfide 1-13)
label 1

Next:
State whether the measured hGalR2 Emax reaches 1, counting equality as reaching it, for CSCC[C@@H]1NC(=O)[C@H](C)NC(=O)[C@H](CCC(N)=O)NC(=O)[C@@H]2CCCN2C(=O)[C@H]([C@@H](C)O)NC(=O)[C@H](Cc2c[nH]c3ccccc23)NC(=O)[C@@H](NC(C)=O)CSSC[C@@H](C(=O)N[C@@H](CCC(N)=O)C(N)=O)NC(=O)CNC(=O)[C@H](CCCCN)NC(=O)[C@H](CC(C)C)NC(=O)[C@H](Cc2ccc(O)cc2)NC(=O)[C@H](CC(C)C)NC1=O [LH101 (Ac)] (Ac-CWTPQAMLYLKGCQ-NH2; disulfide 1-13)
label 0

* * *

ASSAY SYSTEM: hGalR1 (Homo sapiens, UniProt P47211)
Sequence (P47211 1-349): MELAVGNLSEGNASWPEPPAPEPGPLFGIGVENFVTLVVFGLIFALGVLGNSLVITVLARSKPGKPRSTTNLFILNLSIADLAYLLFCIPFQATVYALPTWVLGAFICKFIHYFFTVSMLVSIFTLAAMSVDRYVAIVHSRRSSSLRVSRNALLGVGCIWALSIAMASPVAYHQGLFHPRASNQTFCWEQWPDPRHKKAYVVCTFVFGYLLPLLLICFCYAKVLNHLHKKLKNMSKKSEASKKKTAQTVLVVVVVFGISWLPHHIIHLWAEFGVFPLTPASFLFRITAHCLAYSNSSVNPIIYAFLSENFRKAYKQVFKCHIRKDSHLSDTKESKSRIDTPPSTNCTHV
ASSAY SUMMARY: SRE-Luc receptor activation assay, hGalR1
Assay type: cell-based
EXPERIMENTAL CONDITIONS: HEK293 cells transfected with hGalR1, Gqi, SRE-Luc; 6 h treatment; full-dose
Positions of bridges follow the written chain, without caps; N, C: chain ends. Residues, ends and D or L forms follow the SMILES beside them.
ENDPOINT LABEL: hGalR1 EC50

Lookup: hGalR1 EC50 / hGalR1 (Homo sapiens, UniProt P47211) / CC(=O)N[C@H]1CSSC[C@@H](C(=O)N[C@@H](Cc2c[nH]cn2)C(=O)N[C@@H](C)C(=O)N[C@H](C(N)=O)C(C)C)NC(=O)CNC(=O)[C@H](CC(C)C)NC(=O)[C@H](CC(C)C)NC(=O)[C@H](Cc2ccc(O)cc2)NC(=O)CNC(=O)[C@H](C)NC(=O)[C@H](CO)NC(=O)[C@H](CC(N)=O)NC(=O)[C@H](CC(C)C)NC(=O)[C@H]([C@@H](C)O)NC(=O)[C@H](Cc2c[nH]c3ccccc23)NC1=O [LH201 (Ac)] (Ac-CWTLNSAGYLLGCHAV-NH2; disulfide 1-13)
N.M.
